assay: chemical genetic growth profiling, strain panel (AID 1159580);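 note: tested at 20 µM; growth read once vehicle control cultures reached saturation at 30 °C; 1 = growth at the plate median or of vehicle wells; lower values mean less growth of the strain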; conditions: S. cerevisiae deletion strains, growth OD, locus YDR502C, strain sam2, hits give low values
In all, about 5,500 compounds went through this assay and about 2,000 (36%) were called active. Inconclusive results (about 18%) are left out. The list shows a part of the results.
endpointLabel: normalized growth
Reply with just the number.

Record CC(=O)O[C@H]1CC[C@@]2(C)C(=CCC3C2CC[C@]2(C)C(=O)CCC32)C1 (stereo not given in full) , field normalized growth: 0.843

Record CN(Cc1cc(Br)cc(Br)c1N)C1CCCCC1 , field normalized growth: 0.996

Record COc1cc2c(cc1O)CC1c3c(cc(O)c(OC)c3-2)CCN1C (stereo not given) , field normalized growth: 0.993

Record CC(COc1ccccc1)N(CCCl)Cc1ccccc1 (stereo not given) , field normalized growth: 0.999

Record COc1cc2c3cc1Oc1cc(ccc1O)OC1c4c(cc(OC)c(O)c4Oc4ccc(cc4)CC3N(C)CC2)CCN1C (stereo not given) , field normalized growth: 0.984

Record CCOP(=S)(OCC)Oc1ccc2c(C)c(Cl)c(=O)oc2c1 , field normalized growth: 0.984

Record COc1cc(C)c2c(c1C=O)Oc1c(c(C)c(O)c3c1C(O)OC3=O)OC2=O (stereo not given) , field normalized growth: 1.04

Record CC(=O)Oc1cc(C)c2c(c1C(OC(C)=O)OC(C)=O)Oc1c(c(C)c(OC(C)=O)c3c1C(OC(C)=O)OC3=O)OC2=O (stereo not given) , field normalized growth: 0.968

Record OC/C=C/c1ccc(O)c(O)c1 , field normalized growth: 0.993

Record Oc1ccc(/C=C/c2cc(O)cc(O)c2)cc1 , field normalized growth: 0.895

====

Hi there, I'd appreciate the recorded normalized growth for every entry that follows.
test: chemical genetic growth profiling, strain panel (AID 1159580); conditions: S. cerevisiae deletion strains, growth OD, locus YDR502C, strain sam2, hits give low values
Screen size: about 5,500 compounds; about 2,000 (36%) were called active. Not shown: some 18% with an inconclusive outcome. The list shows a part of the results.
Reply with just the number.

Record O=C(O)CCC(=O)c1ccc(-c2ccccc2)cc1 , field normalized growth: 0.987

Record COP(=S)(OC)Oc1ccc(SC)c(C)c1 , field normalized growth: 1

Record CCCN(CCC)C(=O)C(CCC(=O)O)NC(=O)c1ccccc1 (configuration not stated) , field normalized growth: 1.01

Record COc1cc(/C=C/C(=O)O)cc(OC)c1OC , field normalized growth: 0.991

Record CCN(CC)CCOC(=O)C(Cc1cccc2ccccc12)CC1CCCO1 (configuration not stated) , field normalized growth: 1.01

Record CC(=O)N[C@@H]1[C@@H](C(O)[C@H](O)CO)O[C@](O)(C(=O)O)C[C@@H]1O (some centres not stated) , field normalized growth: 0.998

Record COc1cc(/C=C/C(=O)O)ccc1O , field normalized growth: 0.984

====

assay: chemical genetic growth profiling, strain panel (AID 1159580);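 note: tested at 20 µM; growth read once vehicle control cultures reached saturation at 30 °C; 1 = growth at the plate median or of vehicle wells; lower values mean less growth of the strain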; details: S. cerevisiae deletion strains, growth OD, locus YMR263W, strain SAP30, hits give low values
Hit rate of the full screen: of about 5,500 compounds, about 2,000 (36%) were called active. About 18% were inconclusive and are not listed. Some of the results follow.
endpointLabel: normalized growth
Reply with just the number.

Record O=C(/C=C/c1ccc(O)c(O)c1)O[C@@H]1C[C@](O)(C(=O)O)C[C@@H](O)[C@H]1O , field normalized growth: 1.01

Record Oc1ccc(/C=C/c2cc(O)cc(O)c2)cc1 , field normalized growth: 0.997

Record OC/C=C/c1ccc(O)c(O)c1 , field normalized growth: 0.989

Record COC(=O)[C@H]1[C@H]2C[C@@H]3c4[nH]c5cc(OC)ccc5c4CCN3C[C@H]2C[C@@H](OC(=O)c2cc(OC)c(OC)c(OC)c2)[C@@H]1OC , field normalized growth: 0.979

Record CCCCCCCC1CC/C(=C\c2ccc(/C=C3\CCC(CCCCCCC)C3=O)cc2)C1=O (stereo unspecified) , field normalized growth: 1.01

Record CN1c2ccccc2C(=O)NC1c1cc(Br)cs1 (stereo unspecified) , field normalized growth: 1.01

Record CN(Cc1cnc2nc(N)nc(N)c2n1)c1ccc(C(=O)NC(CCC(=O)O)C(=O)O)cc1 (stereo unspecified) , field normalized growth: 0.987

Record N.N.N.N.N.N.N.N.N.N.N.N.N.N.O.O.[Ru+4].[Ru+5].[Ru+5] , field normalized growth: 0.993

Record BrC12CC3CC(CC(C3)C1)C2 , field normalized growth: 0.975

Record CCCSP(=O)(OCC)SCCC , field normalized growth: 1.03

Record NCCCCN=C(N)N , field normalized growth: 1.01

====

assay: chemical genetic growth profiling, strain panel (AID 1159580);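 note: tested at 20 µM; growth read once vehicle control cultures reached saturation at 30 °C; 1 = growth at the plate median or of vehicle wells; lower values mean less growth of the strain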; conditions: S. cerevisiae deletion strains, growth OD, locus YPL031C, strain PHO85, hits give low values
Out of some 5,500 compounds screened, about 2,000 (36%) were called active. Roughly 18% stayed inconclusive and do not appear here. The list shows a part of the results.
endpointLabel: normalized growth
Reply with just the number.

Record C/C(=N/OC(=O)Nc1ccc(Cl)cc1)c1ccc2c(c1)CCO2 , field normalized growth: 0.806

Record COc1cc(N=Cc2cc(Cl)cc(Cl)c2OC(=O)c2cc(OC)c(OC)c(OC)c2)c(OC)cc1Cl , field normalized growth: 0.292

Record O=C1/C(=C/c2c(F)cccc2Cl)Cc2ccccc21 , field normalized growth: 0.928

Record COc1cc(N=Cc2cc(Cl)cc(Cl)c2OS(=O)(=O)c2ccc(C)cc2)c(OC)cc1Cl , field normalized growth: 0.926

Record COc1ccccc1C(C[N+](=O)[O-])c1c(N)n(C)c(=O)n(C)c1=O (configuration not stated) , field normalized growth: 0.467

Record CCCCCc1ccc(S(=O)(=O)Nc2ccc3c(c2)C(=O)OC3)cc1 , field normalized growth: 0.966

Record COc1cc(C(=O)Oc2c(Cl)cc(Cl)cc2C=Nc2cccc([N+](=O)[O-])c2)cc(OC)c1OC , field normalized growth: 0.6

Record Clc1ccc(-c2noc(CSC3=NCCN3)n2)cc1 , field normalized growth: 0.924

Record CCOC(=O)NC(=S)NC12CC3CC(CC(C3)C1)C2 , field normalized growth: 0.87

Record OC(c1ccc(C(F)(F)F)cc1)c1cccc(C(F)(F)F)c1 (configuration not stated) , field normalized growth: 0.978

Record COc1cc(C(=O)Oc2c(Cl)cc(Cl)cc2C=Nc2ccc([N+](=O)[O-])cc2C#N)cc(OC)c1OC , field normalized growth: 0.572

Record CSc1c(C#N)c(-c2ccc(Cl)cc2)nn1C(=O)c1ccccc1Cl , field normalized growth: 0.934

Record COc1cc(Cl)c(NS(=O)(=O)c2cc(Br)c(Br)s2)c(OC)c1 , field normalized growth: 0.894

Record CC(C)(O)C#Cc1ccc(/C=N\Nc2c(Cl)cc(Cl)cc2Cl)cc1 , field normalized growth: 0.709

Record COc1cc(C(=O)Oc2c(Cl)cc(Cl)cc2C=Nc2cccc(C(F)(F)F)c2)cc(OC)c1OC , field normalized growth: 0.574

Record Cc1onc(-c2ccccc2Cl)c1-c1nc2ccccc2c(=O)o1 , field normalized growth: 0.978

Record Cc1nc(C(F)(F)F)c(C(=O)O/N=C(/N)c2ccc(Cl)cc2)s1 , field normalized growth: 0.947

Record Cc1cc(C(=O)O/N=C(/N)c2ccc(C(C)(C)C)cc2)no1 , field normalized growth: 0.901

Record CC(C)(O)C#Cc1ccc(/C=N\Nc2ccccc2)cc1 , field normalized growth: 0.686

Record CC12CC[C@@H](O)CC1=CC[C@@H]1C2CCC2(C)C(=O)CC[C@@H]12 (some centres not stated) , field normalized growth: 0.899

Record CCCC1c2ccsc2CCN1C(=S)Nc1ccc(Cl)cc1Cl (configuration not stated) , field normalized growth: 0.966

Record Nc1cc(-c2ccc(OC(F)(F)F)cc2)nn1-c1ccc(Cl)c(Cl)c1 , field normalized growth: 0.29

====

experiment: chemical genetic growth profiling, strain panel (AID 1159580);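 note: tested at 20 µM; growth read once vehicle control cultures reached saturation at 30 °C; 1 = growth at the plate median or of vehicle wells; lower values mean less growth of the strain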; conditions: S. cerevisiae deletion strains, growth OD, locus YGR052W, strain FMP48, hits give low values
The campaign covered roughly 5,500 compounds. About 2,000 (36%) were called active. Not shown: some 18% with an inconclusive outcome. This is one part of the list.
Hi there, I'd appreciate the recorded normalized growth for every entry that follows.

Record O=C(Nc1ccccn1)c1cc(-c2ccccc2)c(C(F)(F)F)s1 , field normalized growth: 0.971 (inactive)

Record Cc1cc(C(=O)O/N=C(/N)c2ccc([N+](=O)[O-])o2)no1 , field normalized growth: 0.869 (inactive)

Record COc1cc(N=Cc2cc(Cl)cc(Cl)c2OS(=O)(=O)c2ccc(C)cc2)c(OC)cc1Cl , field normalized growth: 0.917 (inactive)

Record COc1ccccc1NC(=O)Nc1nn(C)c2cccc(OC)c12 , field normalized growth: 0.845 (inactive)

Record COc1cc(Cl)c(NS(=O)(=O)c2cc(Br)c(Br)s2)c(OC)c1 , field normalized growth: 0.923 (inactive)

Record N/C(=N/OC(=O)c1ccc(Cl)cc1)c1ccc(F)cc1F , field normalized growth: 0.487 (active)

Record O=C(NCc1ccco1)c1csc(C2COc3ccccc3O2)n1 (stereo unspecified) , field normalized growth: 0.802 (inactive)

Record OC(c1ccc(C(F)(F)F)cc1)c1cccc(C(F)(F)F)c1 (stereo unspecified) , field normalized growth: 1 (inactive)

Record N#CC1=C(N)C(C#N)(C#N)C2(CCCCC2)C2CCCC=C12 (stereo unspecified) , field normalized growth: 1.05 (inactive)

Record Cc1cc(C(=O)O/N=C(/N)c2ccc(C(C)(C)C)cc2)no1 , field normalized growth: 0.958 (inactive)

Record COc1cc(N=Cc2cc(Cl)cc(Cl)c2OC(=O)c2cc(OC)c(OC)c(OC)c2)c(OC)cc1Cl , field normalized growth: 0.235 (active)

Data origin: PubChem BioAssay AID1159580
